// reported activity (%) at 10 μM per item
Target: human M1 receptor (hCHRM1) (Homo sapiens)
Construct: expressed in transfected cells; host or cells: CHO-K1
Test: Measurement of M1 receptor positive allosteric modulator (M1PAM) activity, calcium fluorescence (FLIPRtetra) in CHO-K1 cells in the presence of acetylcholine at EC20
Assay type: cell-based
Conditions: test compound 10 μM, in the presence of acetylcholine at EC20 (final 0.6 nM), CHO-K1 cells expressing hCHRM1
REPORTED_ENDPOINT: activity (%) at 10 μM

                                    molecule      reported_endpoint  reading
 0  Cc1cc(-c2ccc(CN3Cc4ccnc(Oc5ccc(C(F)F)cc5F)c4C3=O)cc2)ccn1  activity (%) at 10 μM       90
 1  Cn1ccc(-c2ccc(CN3Cc4cccc(O[C@H]5CCCC[C@@H]5O)c4C3=O)cc2)n1 (relative stereo)  activity (%) at 10 μM      134
 2  CNC(=O)c1ccc(CN2Cc3ccnc(Oc4ccc(Br)cc4F)c3C2=O)cc1F  activity (%) at 10 μM      100
 3  Cn1cc(-c2ccc(CN3Cc4ccnc(Oc5cc(CC#N)ccc5F)c4C3=O)cc2)cn1  activity (%) at 10 μM       97
 4  Cn1cc(-c2ccc(CN3Cc4ccnc(Oc5ccc(Cl)cc5F)c4C3=O)cc2)cn1  activity (%) at 10 μM      102
 5  Cn1cc(-c2ccc(CN3Cc4ccnc(OCc5ccccc5F)c4C3=O)cc2)nn1  activity (%) at 10 μM      106
 6  Cn1cc(-c2ccc(CN3Cc4cccc(Oc5ccc(C(O)C(F)(F)F)cc5F)c4C3=O)cn2)cn1 (stereo not shown)  activity (%) at 10 μM       90
 7  C[C@@H](O)[C@@H](C)Oc1nccc2c1C(=O)N(Cc1ccc(F)cc1F)C2  activity (%) at 10 μM      106
 8  Cn1cc(-c2ccc(CN3Cc4ccnc(OCc5ccc(F)cc5F)c4C3=O)cc2)nn1  activity (%) at 10 μM      106
 9  COc1cccc(F)c1Oc1nccc2c1C(=O)N(Cc1ccc(-c3cnn(C)c3)cc1)C2  activity (%) at 10 μM      105
10  Cc1cc(C(F)(F)F)cc(F)c1Oc1nccc2c1C(=O)N(Cc1ccc(-c3ccn(C)n3)cc1)C2  activity (%) at 10 μM      112
11  Cn1cc(-c2ccc(CN3Cc4ccnc(Oc5cc(C#N)ccc5F)c4C3=O)cc2)cn1  activity (%) at 10 μM       96
12  CC(O)c1ccc(Oc2nccc3c2C(=O)N(Cc2ccc(-c4cnn(C)c4)cc2)C3)c(F)c1 (stereo not shown)  activity (%) at 10 μM      109
13  O=C1c2c(cccc2O[C@@H]2CCOC[C@H]2O)CN1Cc1ccc(Cl)cc1 (single isomer, unassigned)  activity (%) at 10 μM      101
14  O=C(NCC1CCCO1)c1ccc(CN2Cc3cccc(OCC4CCCO4)c3C2=O)cc1 (stereo not shown)  activity (%) at 10 μM      118
15  NC(=O)c1ccc(CN2Cc3cccc(Oc4ccc(C(F)(F)F)cc4F)c3C2=O)cc1  activity (%) at 10 μM       96

* * *

Target: human M1 receptor (hCHRM1) (Homo sapiens)
Sequence (P11229 1-460): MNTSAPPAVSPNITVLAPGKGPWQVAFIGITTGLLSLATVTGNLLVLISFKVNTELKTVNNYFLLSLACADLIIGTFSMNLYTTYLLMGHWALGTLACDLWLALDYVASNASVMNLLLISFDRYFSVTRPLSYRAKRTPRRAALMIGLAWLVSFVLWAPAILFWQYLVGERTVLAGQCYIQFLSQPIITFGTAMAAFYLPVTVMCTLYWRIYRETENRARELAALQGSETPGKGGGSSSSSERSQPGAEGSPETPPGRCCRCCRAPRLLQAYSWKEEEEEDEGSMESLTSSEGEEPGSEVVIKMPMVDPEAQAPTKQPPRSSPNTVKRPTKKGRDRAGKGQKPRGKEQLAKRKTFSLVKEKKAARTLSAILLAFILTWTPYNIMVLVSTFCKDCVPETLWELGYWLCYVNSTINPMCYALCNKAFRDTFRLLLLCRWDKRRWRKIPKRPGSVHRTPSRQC
Experiment: Measurement of M1 receptor positive allosteric modulator (M1PAM) activity, calcium fluorescence (FLIPRtetra) in CHO-K1 cells in the presence of acetylcholine at EC20
Settings: inflection point of M1PAM activity, in the presence of acetylcholine at EC20 (final 0.6 nM), CHO-K1 cells expressing hCHRM1; read-out: IP value
REPORTED_ENDPOINT: EC50

>>> df
                                    compound  reading
 0  CCC(O)COc1nccc2c1C(=O)N(Cc1ccc(-c3cn(C)nc3C)cc1)C2 (single isomer, unassigned) [Example 276]   3.6 nM
 1  CNC(=O)c1ccc(CN2Cc3ccnc(Oc4ccc(C)cc4F)c3C2=O)cc1F    78 nM
 2  Cn1cc(-c2ccc(CN3Cc4cccc(OCCN5CCCCC5)c4C3=O)cc2)cn1    96 nM
 3  Cc1nn(C)cc1-c1ccc(CN2Cc3ncnc(Oc4c(F)cccc4F)c3C2=O)c(F)c1    46 nM
 4  Cc1ccc(Oc2nccc3c2C(=O)N(Cc2ccc(C(N)=O)c(F)c2)C3)c(F)c1    70 nM
 5  Cc1cc(-c2ccc(CN3Cc4ccnc(Oc5ccc(C(F)(F)F)cc5F)c4C3=O)cc2)cnn1   8.5 nM
 6  CNC(=O)c1ccc(CN2Cc3ccnc(Oc4ccc(C5CC5)cc4F)c3C2=O)cn1    30 nM
 7  Cn1cc(-c2ccc(CN3Cc4ncnc(Oc5c(F)cc(F)cc5F)c4C3=O)cc2)nn1    14 nM
 8  Cn1cc(-c2coc(CN3Cc4cccc(Oc5c(F)cccc5C#N)c4C3=O)c2)cn1   410 nM
 9  C[C@@H](O)[C@@H](C)Oc1nccc2c1C(=O)N(Cc1ccc(-c3ccn(C)n3)cc1)C2   8.8 nM
10  Cc1cc(-c2ccc(CN3Cc4ncnc(Oc5ccc(C(F)(F)F)cc5F)c4C3=O)cc2)cnn1    16 nM
11  O=C1c2c(cccc2O[C@H]2CCCC[C@@H]2O)CN1Cc1ccc(Br)cc1 (relative stereo)   190 nM
12  Cn1cc(-c2ccc(CN3Cc4ccnc(OCC5CCCO5)c4C3=O)cc2)cn1 (stereo not shown)    10 nM
13  Cn1cc(-c2ccc(CN3Cc4cccc(O[C@H]5CCCC[C@@H]5O)c4C3=O)s2)cn1 (relative stereo)     7 nM
14  Cn1cc(-c2ccc(CN3Cc4ccnc(Oc5c(F)cc(C#N)cc5F)c4C3=O)c(F)c2)cn1   1.4 nM
15  Cc1nn(C)cc1-c1ccc(CN2Cc3ccnc(Oc4c(F)cc(C#N)cc4F)c3C2=O)cc1   2.6 nM
16  Cn1cc(-c2ccc(CN3Cc4cccc(OCCN5CCCC5)c4C3=O)cc2)cn1    33 nM
17  O=C1c2c(cccc2O[C@@H]2CCOC[C@H]2O)CN1Cc1ccc(Cl)cc1 (single isomer, unassigned)    48 nM
18  Cc1cc(-c2ccc(CN3Cc4cccc(Oc5c(F)cc(C#N)cc5F)c4C3=O)cc2)cnn1    20 nM
19  Cc1cc(-c2ccc(CN3Cc4ccnc(OCc5ccccc5F)c4C3=O)c(F)c2)cnn1    55 nM
20  Cc1nn(C)cc1-c1ccc(CN2Cc3ccnc(OC4CCc5cccnc54)c3C2=O)c(F)c1 (stereo not shown)   2.1 nM
21  O=C1c2c(cccc2O[C@H]2CCCC[C@@H]2O)CN1Cc1cccc(Br)c1 (relative stereo)   360 nM
22  Cn1cc(-c2ccc(CN3Cc4ccnc(Oc5ccc(OC(F)(F)F)cc5C#N)c4C3=O)cc2)cn1   6.6 nM
23  Cc1cc(-c2ccc(CN3Cc4cccc(OCC5CCCO5)c4C3=O)cc2)cnn1 (stereo not shown)    49 nM
24  Cn1ccc(-c2ccc(CN3Cc4ccnc(Oc5ccc(C#N)cc5F)c4C3=O)cc2)n1    16 nM
25  COc1cccc(F)c1Oc1nccc2c1C(=O)N(Cc1ccc(-c3cnn(C)c3)cc1)C2    72 nM
26  Cn1ccc(-c2ccc(CN3Cc4ccnc(O[C@H]5CCC[C@@H]5O)c4C3=O)cc2)n1 (relative stereo)    23 nM
27  Cn1cc(-c2ccc(CN3Cc4ccnc(OCc5ccccc5F)c4C3=O)cc2)nn1    17 nM
28  C[C@@H](O)[C@@H](C)Oc1nccc2c1C(=O)N(Cc1c(F)cc(F)cc1F)C2    86 nM
29  O=C1c2c(ncnc2Oc2ccc(C(F)(F)F)cc2F)CN1Cc1ccc(-c2ccnnc2)cc1    27 nM
30  CCc1ccc(Oc2nccc3c2C(=O)N(Cc2ccc(C(N)=O)cc2)C3)c(F)c1   9.3 nM
